molecular target: delF508-CFTR (Homo sapiens, UniProt P13569, DEL508-508); construct: expressed in transfected cells; test: Measurement of delF508-CFTR-HRP surface expression in CFBE41o- cells; assay type: cell-based; conditions: HRP-tagged delF508-CFTR in CFBE41o- cells, 24 h with compound, luminescence, 10-point curve, top 10 μM
Sequence (P13569 with tags, fused parts or gaps DEL508-508): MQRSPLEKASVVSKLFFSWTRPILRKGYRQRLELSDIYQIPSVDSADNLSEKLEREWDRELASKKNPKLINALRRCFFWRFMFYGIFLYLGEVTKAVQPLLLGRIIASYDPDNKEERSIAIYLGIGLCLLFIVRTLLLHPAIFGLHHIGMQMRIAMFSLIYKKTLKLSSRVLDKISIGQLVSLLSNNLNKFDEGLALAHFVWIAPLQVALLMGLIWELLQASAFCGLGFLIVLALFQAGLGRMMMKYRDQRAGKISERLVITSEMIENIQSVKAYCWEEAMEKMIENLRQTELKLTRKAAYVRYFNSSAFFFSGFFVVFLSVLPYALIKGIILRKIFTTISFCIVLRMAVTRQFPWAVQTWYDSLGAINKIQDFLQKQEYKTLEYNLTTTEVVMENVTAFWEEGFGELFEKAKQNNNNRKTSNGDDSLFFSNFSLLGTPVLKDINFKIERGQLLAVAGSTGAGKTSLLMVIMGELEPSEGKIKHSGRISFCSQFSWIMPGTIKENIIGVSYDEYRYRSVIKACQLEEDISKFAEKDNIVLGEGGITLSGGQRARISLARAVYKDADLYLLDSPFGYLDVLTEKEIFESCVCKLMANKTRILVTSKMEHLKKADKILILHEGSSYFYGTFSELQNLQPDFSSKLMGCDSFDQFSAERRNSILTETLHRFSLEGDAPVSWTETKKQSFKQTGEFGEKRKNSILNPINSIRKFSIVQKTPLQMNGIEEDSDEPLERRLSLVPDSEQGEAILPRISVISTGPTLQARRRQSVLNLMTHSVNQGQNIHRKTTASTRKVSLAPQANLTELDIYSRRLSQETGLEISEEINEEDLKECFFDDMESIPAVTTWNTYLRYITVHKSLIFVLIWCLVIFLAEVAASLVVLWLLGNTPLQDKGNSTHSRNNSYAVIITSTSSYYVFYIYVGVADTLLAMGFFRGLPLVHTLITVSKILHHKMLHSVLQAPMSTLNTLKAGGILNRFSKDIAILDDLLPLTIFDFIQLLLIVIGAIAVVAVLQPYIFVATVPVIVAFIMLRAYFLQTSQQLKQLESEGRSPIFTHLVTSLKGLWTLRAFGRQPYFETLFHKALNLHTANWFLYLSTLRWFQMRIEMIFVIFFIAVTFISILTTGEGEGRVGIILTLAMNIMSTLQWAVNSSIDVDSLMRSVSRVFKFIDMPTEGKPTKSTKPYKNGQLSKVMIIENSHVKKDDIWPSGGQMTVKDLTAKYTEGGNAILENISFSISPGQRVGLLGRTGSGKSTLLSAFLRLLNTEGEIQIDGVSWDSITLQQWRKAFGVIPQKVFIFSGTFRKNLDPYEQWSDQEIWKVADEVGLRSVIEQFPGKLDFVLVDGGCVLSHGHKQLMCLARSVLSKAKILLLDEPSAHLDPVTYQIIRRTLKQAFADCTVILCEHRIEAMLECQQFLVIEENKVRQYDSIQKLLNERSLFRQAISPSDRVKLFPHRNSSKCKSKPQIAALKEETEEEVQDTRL
measurement.kind: EC50 (nM)

Cc1ccc(F)cc1-c1nc(NS(=O)(=O)c2cccc(N(CCC(=O)O)CC(C)C)n2)ccc1C(F)(F)F = 970
CCc1ccc(F)cc1-c1nc(NS(=O)(=O)c2cccc(N(CC)CCC(=O)O)n2)ccc1C(F)(F)F = 1770
Cc1c(F)cccc1-c1nc(NS(=O)(=O)c2cccc(N3CCC(C)(CC(=O)O)CC3)n2)ccc1C(F)(F)F = 2400
CC1(C(=O)O)CCCN(c2cccc(S(=O)(=O)Nc3ccc(Cl)c(-c4ccccc4-c4ccccc4)n3)n2)C1 (centres unmarked) = 1300
CCc1ccc(F)cc1-c1nc(NS(=O)(=O)c2cccc(N(CCC(=O)O)C3CC3)n2)ccc1C(F)(F)F = 1770

(A) Cc1cccc(C)c1-c1nc(NS(=O)(=O)c2cccc(N(CCCC(=O)O)CC(C)C)n2)ccc1Cl
(B) Cc1ccc(F)cc1-c1nc(NS(=O)(=O)c2cccc(N3CCC[C@@](C)(CC(=O)O)C3)n2)ccc1C(F)(F)F (single isomer, unassigned)
Could you check which of A and B has a smaller value for EC50? Answer with the label corresponding to your selection.
A

(I) Cc1ccccc1-c1nc(NS(=O)(=O)c2cccc(N(C)CC(C)(C)C(=O)O)n2)ccc1C(F)(F)F
(II) CCc1ccccc1-c1nc(NS(=O)(=O)c2cccc(N(CCCC(=O)O)C(C)C)n2)ccc1C(F)(F)F
Return label of the item with the larger EC50. Candidates: I , II . Mark your selection by writing its label.
I
(I: 1810 nM, II: 720 nM)

----------
biological target: delF508-CFTR (Homo sapiens, UniProt P13569, DEL508-508); construct: expressed in transfected cells; assay: delF508-CFTR functional activity in primary human bronchial epithelial cells (HBECs), Multi-Transepithelial Clamp Circuit (MTECC-24) assay; format: cell-based; conditions: primary human delF508-CFTR bronchial epithelial cells, 24 h with compound, equivalent short circuit current (Ieq), forskolin plus potentiator; mean of at least two replicates; read-out: MTECC24-CFHBEC EC50
pEC50: −log10 of the molar value.
measurement.kind: pEC50

(P) CCCN(CCCC(=O)O)c1cccc(S(=O)(=O)Nc2ccc(C(F)(F)F)c(-c3ccccc3C)n2)n1
(Q) CCc1ccccc1-c1nc(NS(=O)(=O)c2cccc(N(CC)CCCC(=O)O)n2)ccc1C(F)(F)F
(R) CCN(CCC(=O)O)c1cccc(S(=O)(=O)Nc2ccc(C(F)(F)F)c(-c3ccccc3C)n2)n1
(S) CCc1ccccc1-c1nc(NS(=O)(=O)c2cccc(N3CCC[C@@H](CC(=O)O)C3)n2)ccc1C(F)(F)F
Reorder the list: decreasing pEC50. Answer by listing the labels in the order asked for.
Q, S, P, R

----------
Target: delF508-CFTR (Homo sapiens, UniProt P13569, DEL508-508)
Construct: expressed in transfected cells
Test: Measurement of delF508-CFTR-HRP surface expression in CFBE41o- cells
Format: cell-based
Conditions: efficacy relative to reference compound 3-(6-(1-(2,2-difluorobenzo[d][1,3]dioxol-5-yl)cyclopropane-1-carboxamido)-3-methylpyridin-2-yl)benzoic acid; CFBE41o- cells, 24 h; read-out: DelF508-CFTR-HRP Amax %
Method: Measurement of delF508-CFTR-HRP Surface Expression in CFBE41o-Cells This assay quantifies the cell surface expressions of the mutant CFTR channel using an extracellular HRP tag. […] The median activity for the lowest concentration of the compounds on each assay plate was calculated and this value was used to normalize the signal for each well on the respective plate. […] The median value was determined and used to calculate compound activities as described below. […]
measurement.kind: Emax (%)

CC1(C(=O)O)CCN(c2cccc(S(=O)(=O)Nc3ccc(Cl)c(-c4ccccc4-c4ccccc4)n3)n2)CC1 = 378
Cc1ccc(F)cc1-c1nc(NS(=O)(=O)c2cccc(N3CCC(C)(CC(=O)O)C3)n2)ccc1C(F)(F)F (centres unmarked) = 457
Cc1cccc(C)c1-c1nc(NS(=O)(=O)c2cccc(N(CCCC(=O)O)CC(C)C)n2)ccc1Cl = 699

(P) CCCCN(CCC(=O)O)c1cccc(S(=O)(=O)Nc2ccc(C(F)(F)F)c(-c3cc(F)ccc3C)n2)n1
(Q) CCc1ccccc1-c1nc(NS(=O)(=O)c2cccc(N3CCC(C)(CC(=O)O)CC3)n2)ccc1C(F)(F)F
Between P and Q , which one shows the larger Emax value? In your reply, give the label of the chosen option.
P
(P: 770%, Q: 485%)

(1) Cc1ccccc1-c1nc(NS(=O)(=O)c2cccc(N(CCCC(=O)O)CC(C)C)n2)ccc1Cl
(2) CCN(CCC(=O)O)c1cc(S(=O)(=O)Nc2ccc(Cl)c(-c3c(C)cccc3C)n2)ccn1
Could you point out whether the larger Emax belongs to 1 or to 2 ? # reply format: chosen label
1

----------
target: delF508-CFTR (Homo sapiens, UniProt P13569, DEL508-508); construct: expressed in transfected cells; experiment: delF508-CFTR functional activity in primary human bronchial epithelial cells (HBECs), Multi-Transepithelial Clamp Circuit (MTECC-24) assay; format: cell-based; details: test compound added 24 h before assay, with potentiator (S)-3-amino-6-methoxy-N-(3,3,3-trifluoro-2-hydroxy-2-methylpropyl)-5-(trifluoromethyl)picolinamide; relative to 2 μM 3-(6-(1-(2,2-difluorobenzo[d][1,3]dioxol-5-yl)cyclopropane-1-carboxamido)-3-methylpyridin-2-yl)benzoic acid + 0.5 μM N-(2,4-di-tert-butyl-5-hydroxyphenyl)-4-oxo-1,4-dihydroquinoline-3-carboxamide
measurement.kind: MTECC24-CFHBEC Amax % (%)

CCN(CCC(=O)O)c1cccc(S(=O)(=O)Nc2ccc(C(F)(F)F)c(-c3cccc(F)c3C)n2)n1 [Compound 56] = 131

(I) CCCN(CCCC(=O)O)c1cccc(S(=O)(=O)Nc2ccc(C(F)(F)F)c(-c3ccccc3C)n2)n1 [Compound 132]
(II) Cc1ccc(F)cc1-c1nc(NS(=O)(=O)c2cccc(N(C)CCCC(=O)O)n2)ccc1C(F)(F)F [Compound 92]
// returns I or II , whichever has the lower MTECC24-CFHBEC Amax % Label of pick, please.
II

(1) CCCCN(CCCC(=O)O)c1cccc(S(=O)(=O)Nc2ccc(C(F)(F)F)c(-c3ccccc3C)n2)n1 [Compound 87]
(2) Cc1ccccc1-c1nc(NS(=O)(=O)c2cccc(N(C)CC3(C(=O)O)CCOCC3)n2)ccc1C(F)(F)F [Compound 133]
(3) Cc1c(F)cccc1-c1nc(NS(=O)(=O)c2cccc(N(C)CCCCC(=O)O)n2)ccc1C(F)(F)F [Compound 67]
Let's sort these by MTECC24-CFHBEC Amax %, smallest first. Go ahead? # respond with the labels, arranged in the requested order
2, 3, 1
(2: 108%, 3: 168%, 1: 269%)

(1) Cc1ccc(F)cc1-c1nc(NS(=O)(=O)c2cccc(N3CCC[C@@](C)(CC(=O)O)C3)n2)ccc1C(F)(F)F (single isomer, unassigned) [Compound 64]
(2) Cc1ccc(F)cc1-c1nc(NS(=O)(=O)c2cccc(N(CCC(=O)O)C(C)C)n2)ccc1C(F)(F)F [Compound 135]
(3) CCc1ccccc1-c1nc(NS(=O)(=O)c2cccc(N(CC)CCCC(=O)O)n2)ccc1C(F)(F)F [Compound 97]
Reorder the items by MTECC24-CFHBEC Amax %, least to greatest. Rank them, then answer with their labels in that order.
1, 3, 2
(1: 107%, 3: 190%, 2: 292%)

(A) Cc1ccccc1-c1nc(NS(=O)(=O)c2cccc(N3CCC[C@H](CCC(=O)O)C3)n2)ccc1C(F)(F)F (single isomer, unassigned) [Compound 62]
(B) CCCN(CCCC(=O)O)c1cccc(S(=O)(=O)Nc2ccc(C(F)(F)F)c(-c3cc(F)ccc3C)n2)n1 [Compound 131]
Between the entries labeled A and B , whose measured MTECC24-CFHBEC Amax % is lower? # answer = label of selected item
B

----------
target: delF508-CFTR (Homo sapiens, UniProt P13569, DEL508-508); construct: expressed in transfected cells; assay: Measurement of delF508-CFTR-HRP surface expression in CFBE41o- cells; assay type: cell-based; conditions: HRP-tagged delF508-CFTR in CFBE41o- cells, 24 h with compound, luminescence, 10-point curve, top 10 μM
measurement.kind: EC50 (µM)

Cc1ccccc1-c1nc(NS(=O)(=O)c2cccc(N(CCCC(=O)O)CC(C)C)n2)ccc1C(F)(F)F [Compound 129] = 1.08
C=Cc1ccccc1-c1nc(NS(=O)(=O)c2cccc(N3CCC[C@@H](CC(=O)OC)C3)n2)ccc1C(F)(F)F [Compound 78] = 1.41

(I) CCc1ccc(F)cc1-c1nc(NS(=O)(=O)c2cccc(N(C)CCCC(=O)O)n2)ccc1C(F)(F)F [Compound 93]
(II) Cc1ccccc1-c1nc(NS(=O)(=O)c2cccc(N(C)CCCC(=O)O)n2)ccc1C(F)(F)F [Compound 37]
Compare the recorded EC50 of I and II ; state which is larger. Could you answer with the label of the item you picked?
II
